Experiment: Terminal half life in rat at 3 mg/kg, po
Format: ADME, organism-based
Set-up: dose 3 mg/kg, route oral
Conditions: Wistar Han, in vivo, read-out: beta t1/2 (converted)
test readout: half-life (h)
Express it in h; write the number only.

Quick note, half-life for `Cc1nc2cc(C(C)C)c(-c3ccc(Cl)c(OCC4CC4)c3)cc2c(=O)[nH]1` landed at 3.5

====

Test: Tmax in rat brain at 3 mg/kg, po
Type: ADME, organism-based
Design: dose 3 mg/kg, route oral
Conditions: Wistar Han
test readout: Tmax (h)
Dear colleague, please return just the value in h, with no unit written.

Lab note: `Cc1nc2cc(C(C)C)c(-c3ccc(Cl)c(OCC4CC4)c3)cc2c(=O)[nH]1` gave Tmax of 4

====

Experiment: Oral Bioavailability in rat at 3mg/kg
Format: ADME, organism-based
Details: Wistar Han, in vivo
test readout: bioavailability (%)
# output: bare number, implied unit %

The reported value for `Cc1nc2cc(C(C)C)c(-c3ccc(Cl)c(OCC4CC4)c3)cc2c(=O)[nH]1` in terms of bioavailability is 75

====

Molecular target: Transient receptor potential cation channel subfamily V member 1 (Homo sapiens, UniProt Q8NER1)
Sequence (Q8NER1 whole entry): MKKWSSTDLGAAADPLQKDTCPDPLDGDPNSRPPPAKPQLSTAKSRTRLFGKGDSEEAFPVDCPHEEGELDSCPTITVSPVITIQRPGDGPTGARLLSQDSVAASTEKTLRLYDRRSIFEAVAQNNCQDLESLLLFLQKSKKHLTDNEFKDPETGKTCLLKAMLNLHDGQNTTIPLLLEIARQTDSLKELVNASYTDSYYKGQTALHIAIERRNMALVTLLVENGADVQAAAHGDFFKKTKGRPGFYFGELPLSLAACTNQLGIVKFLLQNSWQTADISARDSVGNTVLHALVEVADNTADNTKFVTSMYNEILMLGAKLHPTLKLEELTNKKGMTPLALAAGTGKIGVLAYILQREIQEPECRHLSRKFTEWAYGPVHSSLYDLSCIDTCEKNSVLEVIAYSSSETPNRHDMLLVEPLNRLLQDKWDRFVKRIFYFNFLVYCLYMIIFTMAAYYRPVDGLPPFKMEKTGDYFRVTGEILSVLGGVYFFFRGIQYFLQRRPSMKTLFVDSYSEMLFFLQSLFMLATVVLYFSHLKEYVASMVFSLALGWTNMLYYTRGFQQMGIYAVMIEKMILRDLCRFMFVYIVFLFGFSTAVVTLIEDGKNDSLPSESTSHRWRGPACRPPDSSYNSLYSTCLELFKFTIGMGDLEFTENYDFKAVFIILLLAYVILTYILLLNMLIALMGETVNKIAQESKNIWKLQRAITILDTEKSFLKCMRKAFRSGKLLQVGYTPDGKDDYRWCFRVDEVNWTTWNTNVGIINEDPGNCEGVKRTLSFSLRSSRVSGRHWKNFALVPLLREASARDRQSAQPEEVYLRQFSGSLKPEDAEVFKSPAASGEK
Assay: Inhibition of calcium influx evoked by capsaicin in human TRPV1 expressing cells by fluorescence assay
Assay type: functional
pIC50: −log10 of the molar value.
// f strictly below 7 in pIC50; t otherwise

Example entries and their recorded answers appear below.
molecule_smiles=CCOc1cc(-c2cc3c(=O)[nH]c(C)nc3cc2C(C)C)ccc1Cl label_class=t
molecule_smiles=CCOc1cc(-c2cc3c(=O)[nH]c(C)nc3cc2C(C)C)ccc1OC label_class=f
molecule_smiles=Cc1nc(O)c2cc(-c3ccc(Cl)c(OC(C)C)c3)c(C(C)C)cc2n1 label_class=f
molecule_smiles=Cc1nc2cc(C(C)C)c(-c3ccc(Cl)cc3)cc2c(=O)[nH]1 label_class=t
molecule_smiles=CCOc1cc(-c2cc3c(=O)[nH]c(C)nc3cc2C(C)C)c(Cl)cc1Cl label_class=t

Exam item: In plain terms: is recorded pIC50 at least 7 for `Cc1nc2cc(C(C)C)c(-c3ccc(Cl)c(F)c3)cc2c(=O)[nH]1` ?
Marked response: t

Exam item: Is the recorded value of pIC50 equal to or greater than 7 for this compound? `COc1cc(-c2cc3c(=O)[nH]c(C)nc3cc2C(C)C)ccc1Cl`
Marked response: t

====

Assay: Plasma concentration in rat at 3 mg/kg, po after 4 hrs
Type: ADME, organism-based
Parameters: dose 3 mg/kg, route oral
Settings: Wistar Han
test readout: concentration at 4 h (nM)
Enter your answer as a number in nM; do not include the unit.

Record `Cc1nc2cc(C(C)C)c(-c3ccc(Cl)c(OCC4CC4)c3)cc2c(=O)[nH]1` , field concentration at 4 h: 1910

====

Target: Transient receptor potential cation channel subfamily V member 1 (Homo sapiens, UniProt Q8NER1)
Test: Inhibition of calcium influx evoked by capsaicin in human TRPV1 expressing cells by fluorescence assay
Format: functional
test readout: log10 of IC50 (log10 of the value in nM)
Please interpret these as log10 of IC50 where IC50 is in nM.

molecule_smiles=COCCOc1cc(-c2cc3c(=O)[nH]c(C)nc3cc2C(C)C)ccc1Cl test_readout="log10 of IC50" result_number=2.33
molecule_smiles=Cc1nc(O)c2cc(-c3ccc(Cl)c(OCC4CCC4)c3)c(C(C)C)cc2n1 test_readout="log10 of IC50" result_number=2.16
molecule_smiles=Cc1nc(O)c2cc(-c3ccc(Cl)c(OCCO)c3)c(C(C)C)cc2n1 test_readout="log10 of IC50" result_number=2.75

`Cc1nc2cc(C(C)C)c(-c3ccc(Cl)c(OCCN(C)C)c3)cc2c(=O)[nH]1` yielded log10 of IC50 of 2.69

Entry `Cc1nc(O)c2cc(-c3ccc4c(c3)OCO4)c(C(C)C)cc2n1` , log10 of IC50 reported as 1.49

====

Assay: Plasma concentration in rat at 1 mg/kg, iv after 0.5 hrs
Type: ADME, organism-based
Design: dose 1 mg/kg, route intravenous
Details: Wistar Han
test readout: concentration at 0.5 h (nM)
Number only, in nM; omit the unit.

Recorded result, `Cc1nc2cc(C(C)C)c(-c3ccc(Cl)c(OCC4CC4)c3)cc2c(=O)[nH]1` , concentration at 0.5 h: 1180

====

Experiment: Terminal half life in rat at 1 mg/kg, iv
Format: ADME, organism-based
Set-up: dose 1 mg/kg, route intravenous
Details: Wistar Han, in vivo, read-out: beta t1/2 (converted)
test readout: half-life
Please don't drop the unit; write it after the number.

Given item `Cc1nc2cc(C(C)C)c(-c3ccc(Cl)c(OCC4CC4)c3)cc2c(=O)[nH]1` , the value recorded as its half-life is 3.48 h

====

Test: Clearance in rat at 1 mg/kg, iv
Assay type: ADME, organism-based
Set-up: dose 1 mg/kg, route intravenous
Conditions: Wistar Han, in vivo
test readout: clearance (mL/min/kg)
The response must be a number in mL/min/kg with no trailing unit.

Summary for this compound, `Cc1nc2cc(C(C)C)c(-c3ccc(Cl)c(OCC4CC4)c3)cc2c(=O)[nH]1` : clearance is 5.25

====

Test: Plasma concentration in rat at 10 mg/kg, po after 18 hrs
Format: ADME, organism-based
Set-up: dose 10 mg/kg, route oral
Settings: Wistar Han
test readout: concentration at 18 h (nM)
Please give a number only; it is taken to be in nM.

concentration at 18 h reading for `Cc1nc2cc(C(C)C)c(-c3ccc(Cl)c(OCC4CC4)c3)cc2c(=O)[nH]1` : 583

====

Test: Plasma concentration in rat at 10 mg/kg, po after 6 hrs
Assay type: ADME, organism-based
Design: dose 10 mg/kg, route oral
Settings: Wistar Han
test readout: concentration at 6 h (µM)
Please reply with the bare figure in µM and do not write the unit itself.

Value of concentration at 6 h reported for the compound `Cc1nc2cc(C(C)C)c(-c3ccc(Cl)c(OCC4CC4)c3)cc2c(=O)[nH]1` is 3.22

====

Test: Plasma concentration in rat at 3 mg/kg, po after 18 hrs
Type: ADME, organism-based
Design: dose 3 mg/kg, route oral
Details: Wistar Han
test readout: concentration at 18 h (nM)
# number only, unit nM dropped from output

The compound listed as `Cc1nc2cc(C(C)C)c(-c3ccc(Cl)c(OCC4CC4)c3)cc2c(=O)[nH]1` has a reported concentration at 18 h of 90

====

Molecular target: Transient receptor potential cation channel subfamily V member 1 (Homo sapiens, UniProt Q8NER1)
Test: Inhibition of calcium influx evoked by capsaicin in human TRPV1 expressing cells by fluorescence assay
Format: functional
Reported pIC50 is given for each of the following molecules.
Give only the number. pIC50 is defined as minus log10 of concentration in molar units.

molecule=Cc1nc(O)c2cc(-c3ccc(C)c(Cl)c3)c(C(C)C)cc2n1 test_readout=pIC50 result_number=7.38
molecule=Cc1nc2cc(C(C)C)c(-c3ccc(Cl)c(OCC4CC4)c3)cc2c(=O)[nH]1 test_readout=pIC50 result_number=7.30

GET /value?item= `CCCCOc1cc(-c2cc3c(=O)[nH]c(C)nc3cc2C(C)C)ccc1Cl` &field=pIC50 returns 7.09

Query `CCCOc1cc(-c2cc3c(=O)[nH]c(C)nc3cc2C(C)C)ccc1Cl` yields pIC50 of 7.40

response.value for Oc1cc2c(cc1O)CN(C(=S)NCCc1ccc(Cl)cc1)CCC2 [CAPSAZEPINE] (field: pIC50) = 6.48

====

Assay: Plasma concentration in rat at 3 mg/kg, po after 2 hrs
Format: ADME, organism-based
Set-up: dose 3 mg/kg, route oral
Details: Wistar Han
test readout: concentration at 2 h (nM)
Write the number in nM without appending the unit.

According to the records, this compound `Cc1nc2cc(C(C)C)c(-c3ccc(Cl)c(OCC4CC4)c3)cc2c(=O)[nH]1` displays concentration at 2 h of 1420

====

Experiment: Plasma concentration in rat at 10 mg/kg, po after 24 hrs
Format: ADME, organism-based
Set-up: dose 10 mg/kg, route oral
Conditions: Wistar Han
test readout: concentration at 24 h (nM)
Provide the reading as a plain figure in nM.

The molecule `Cc1nc2cc(C(C)C)c(-c3ccc(Cl)c(OCC4CC4)c3)cc2c(=O)[nH]1` showed concentration at 24 h equal to 106

====

Test: Plasma concentration in rat at 10 mg/kg, po after 4 hrs
Type: ADME, organism-based
Design: dose 10 mg/kg, route oral
Conditions: Wistar Han
test readout: concentration at 4 h
Please answer in the form of a number followed by its unit of measurement.

According to the records, this compound `Cc1nc2cc(C(C)C)c(-c3ccc(Cl)c(OCC4CC4)c3)cc2c(=O)[nH]1` displays concentration at 4 h of 5.97 µM
